assay: splicing luciferase reporter signal modulators, primary screen, spliceosome inhibition project, cell-based, HEK293, splice +/- reporter (AID 1101); conditions: luminescence, 24 h, higher = more signal, called active from +8 up or from −8 down;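 further: HEK293 cells carrying a splicing-competent luciferase reporter gene; test concentration not given here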
Assign yes whenever z-score does not fall below 0.2; assign no whenever it does.

QUERY: Quick check: does O=C1C2C=CC(C(O)c3ccc4c(c3)OCO4)N(Nc3ccccc3)C2C(=O)N1c1ccccc1 (stereo not drawn) have z-score greater than or equal to 0.2?
RESULT: yes

QUERY: And what about the compound CCOC(=O)C1=C[C@@H](C(C)(C)C)N(S(=O)(=O)c2ccc(C)cc2)[C@H]1c1ccc(C)cc1 ?
RESULT: no

QUERY: And what about the compound O=C(NCC(O)CO)[C@@]1(CCS(=O)(=O)c2ccccc2)COC(c2ccc(OCCCO)cc2)=N1 (stereo partly drawn) ?
RESULT: yes

QUERY: And what about the compound C=CCNC(=O)[C@H]1[C@@H]2C(=O)O[C@@H](c3ccccc3)[C@@H](c3ccccc3)N2[C@@H](c2ccc(O)cc2)[C@]12C(=O)N(C(=O)OCCOC)c1ccc(C#CCC(C(=O)OC)C(=O)OC)cc12 ?
RESULT: no

QUERY: And what about the compound CCOC(=O)C1=CCC(c2ccco2)N(S(=O)(=O)c2ccc(C)cc2)C1 (stereo not drawn) ?
RESULT: no

QUERY: And what about the compound CCOC(=O)C=Cc1ccccc1O ?
RESULT: no

QUERY: And what about the compound CC(C)OC(=O)CC(=O)CC(O)c1ccc([N+](=O)[O-])cc1 (stereo not drawn) ?
RESULT: no

We now examine a further compound.
QUERY: Quick check: does COC(=O)C1=CC(CCCO)=CC(c2ccc(CN3CCCC3)cc2)N(Cc2cc3c(cc2Br)OCO3)C=C1C(=O)OC (stereo not drawn) have z-score greater than or equal to 0.2?
RESULT: no

----------
assay: E. coli acrAB mutant growth effects, primary screen, E. coli filamentation inducers, strain DRC39, OD650, 48 h (AID 1179);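 further: screen aims at cell division blockers that make cells filament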; conditions: E. coli DRC39 delta-acrAB growth, higher = more signal, called active from +8 up or from −8 down
Collected z-score values appear next to each entry.
Please reply with the number alone, leaving off any unit.

Below: 5 compounds and their reported z-score.
QUERY: May I ask what z-score has been recorded for COc1ccc([Si](C)(C)[C@@H]2[C@@H](CC(=O)N3Cc4ccccc4C[C@H]3CO)O[C@]3(C(=O)N(Cc4ccc(N5CCC5=O)cc4)c4ccccc43)[C@H]2C)cc1 ?
RESULT: 0.613

QUERY: And what about the compound CC(=O)NCCCC[C@@H]1NC(=O)[C@@H]2C[C@H](C(=O)NCCCCCCN)[C@H](c3cccc(OCCO)c3)N2C1=O ?
RESULT: 0.211

QUERY: And what about the compound CC(C)C[C@@H]1NC(=O)[C@@H]2C[C@H](C(=O)NCCCCCC[N+](C)(C)C)[C@H](c3cccc(OCCO)c3)N2C1=O ?
RESULT: -1.15

QUERY: And what about the compound C=C(C(=O)CC[C@H](OC(=O)c1ccccc1-c1ccccc1C(=O)O)c1ccccc1OCCO)C(C)C ?
RESULT: 0.32

QUERY: And what about the compound [N-]=[N+]=NCc1ccccc1[C@H]1OC(c2ccc(OCCCO)cc2)=N[C@@]1(Cc1ccccc1)C(=O)NCCN1CCOCC1 ?
RESULT: 0.763

***
QUERY: May I ask what z-score has been recorded for [N-]=[N+]=NCc1ccccc1C[C@]1(C(=O)N2CCOCC2)COC(c2ccc(OCCCO)cc2)=N1 ?
RESULT: 1.71

QUERY: And what about the compound C=C(C)[C@@H]1CC=C(C(O)C2C=CC3C(=O)N(c4ccccc4)C(=O)C3N2Nc2ccc(C#N)cc2)CC1 (stereo not given in full) ?
RESULT: -0.906

QUERY: And what about the compound CC(C)C[C@@H]1NC(=O)CNC(=O)[C@@]23C(=O)N[C@@H](Cc4ccccc4)C2[C@H](C)[C@@]2(C)O[C@H]2C3/C=C/C/C=C\CNC1=O (stereo not given in full) ?
RESULT: 0.394

QUERY: And what about the compound CC(C)[C@H]1NC(=O)[C@@]23C(=O)N[C@@H](Cc4ccccc4)C2[C@H](C)[C@@]2(C)O[C@H]2C3/C=C/CCC/C=C/CNC(=O)[C@H](Cc2ccccc2)NC1=O (stereo not given in full) ?
RESULT: -0.786

Provenance of the data: PubChem BioAssay
